- Tested on: 1N4R p-tau
- Construct: made in house; host or cells: E. coli (PIMAX system)
- test_details: p-tau aggregation modulator screen of 1280-compound library (ThS fluorescence net change over 16 h);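 further: 30 µM compound with 6 µM p-tau over 16 h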
- Type: biochemical
- reported_conditions: library screen, ThS fluorescence net change over 16 h with p-tau
property: ThS net change

[
  {
    "compound": "O=C1c2c(O)cccc2Cc2cccc(O)c21 [Anthralin]",
    "system_name": "1N4R p-tau",
    "property": "ThS net change",
    "result": 85
  },
  {
    "compound": "CN1CCN(CCCN2c3ccccc3Sc3ccc(S(=O)(=O)N(C)C)cc32)CC1.CS(=O)(=O)O.CS(=O)(=O)O [Thioproperazine dimesylate]",
    "system_name": "1N4R p-tau",
    "property": "ThS net change",
    "result": 314
  },
  {
    "compound": "Cc1cc(C2CCCCC2)n(O)c(=O)c1.NCCO [Ciclopirox ethanolamine]",
    "system_name": "1N4R p-tau",
    "property": "ThS net change",
    "result": 20
  },
  {
    "compound": "CCC(NC(C)C)C(O)c1ccc(O)c(O)c1.CS(=O)(=O)O (stereo not shown) [Isoetharine mesylate salt]",
    "system_name": "1N4R p-tau",
    "property": "ThS net change",
    "result": 313
  },
  {
    "compound": "CCCCCC[C@H]1C(=O)O[C@H](C)[C@H](NC(=O)c2cccc(NC=O)c2O)C(=O)O[C@@H](C)[C@@H]1OC(=O)CC(C)C [Antimycin A]",
    "system_name": "1N4R p-tau",
    "property": "ThS net change",
    "result": 211
  },
  {
    "compound": "Cc1ncc([N+](=O)[O-])n1CC(C)O (stereo not shown) [Secnidazole]",
    "system_name": "1N4R p-tau",
    "property": "ThS net change",
    "result": 327
  },
  {
    "compound": "CN(C)[C@@H]1C(O)=C(C(N)=O)C(=O)[C@@]2(O)C(O)=C3C(=O)c4c(O)cccc4[C@@](C)(O)[C@H]3[C@H](O)[C@@H]12 [Oxytetracycline dihydrate]",
    "system_name": "1N4R p-tau",
    "property": "ThS net change",
    "result": 220
  }
]

====

- Test system: 1N4R p-tau
- Construct: made in house; host or cells: E. coli (PIMAX system)
- test_details: p-tau aggregation modulator screen of 1280-compound library (ThS fluorescence net change over 16 h);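 further: 30 µM compound with 6 µM p-tau over 16 h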
- Type: biochemical
- reported_conditions: library screen, ThS fluorescence net change over 16 h with p-tau
Where a name gives a salt, the structure may show the parent alone.

[
  {
    "compound": "CN(C)CCC(c1ccccc1)c1ccccn1 (centres unmarked) [Pheniramine maleate]",
    "ThS net change": 318
  },
  {
    "compound": "CC(=O)Oc1ccccc1C(=O)Nc1ncc([N+](=O)[O-])s1 [Nitazoxanide]",
    "ThS net change": 198
  },
  {
    "compound": "CC1COc2c(N3CCN(C)CC3)c(F)cc3c(=O)c(C(=O)O)cn1c23 (centres unmarked) [Ofloxacin]",
    "ThS net change": 311
  },
  {
    "compound": "CCOc1ccc2ccccc2c1C(=O)N[C@@H]1C(=O)N2[C@@H]1SC(C)(C)[C@@H]2C(=O)O [Nafcillin sodium salt monohydrate]",
    "ThS net change": 317
  },
  {
    "compound": "O=c1[nH]c2ccccc2n1C1CCN(CCCC(c2ccc(F)cc2)c2ccc(F)cc2)CC1 [Pimozide]",
    "ThS net change": 274
  },
  {
    "compound": "Clc1ccc(C(Cn2ccnc2)OCc2ccsc2Cl)c(Cl)c1 (centres unmarked) [Tioconazole]",
    "ThS net change": 309
  },
  {
    "compound": "CN1CCN(CCCN2c3ccccc3Sc3ccc(C(F)(F)F)cc32)CC1 [Trifluoperazine dihydrochloride]",
    "ThS net change": 299
  },
  {
    "compound": "O=C(CCCN1CCC(O)(c2ccc(Cl)cc2)CC1)c1ccc(F)cc1 [Haloperidol]",
    "ThS net change": 319
  }
]
